Ref: patent US7504420B2

Data export: Ki values recorded with cathepsin D (Homo sapiens, UniProt P07339).
Sequence (P07339 65-412, species assumed): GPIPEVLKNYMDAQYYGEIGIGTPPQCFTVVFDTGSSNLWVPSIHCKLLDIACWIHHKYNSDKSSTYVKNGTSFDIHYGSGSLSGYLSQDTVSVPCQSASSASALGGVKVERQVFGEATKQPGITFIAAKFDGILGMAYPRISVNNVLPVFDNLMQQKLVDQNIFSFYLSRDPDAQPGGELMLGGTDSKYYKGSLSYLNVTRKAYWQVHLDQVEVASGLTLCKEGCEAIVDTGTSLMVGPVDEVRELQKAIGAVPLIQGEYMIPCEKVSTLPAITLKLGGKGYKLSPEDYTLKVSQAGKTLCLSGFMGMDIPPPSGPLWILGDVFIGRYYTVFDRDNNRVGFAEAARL

Solved entries:
COc1ccccc1CNCC(O)C(Cc1ccccc1)NC(=O)c1cc(C(=O)NC(C)c2ccccc2)cc(N(C)S(C)(=O)=O)c1 (stereo not shown)
< 300 nM
Cc1nc(CNCC(O)C(Cc2ccccc2)NC(=O)c2cc(C(=O)NC(C)c3ccccc3)cc(N(C)S(C)(=O)=O)c2)c(C)o1 (stereo not shown)
> 501 nM
CC(NCC(O)C(Cc1ccccc1)NC(=O)c1cc(C(=O)NC(C)c2ccccc2)cc(N(C)S(C)(=O)=O)c1)c1cccc(F)c1 (stereo not shown)
< 300 nM

Hello, I am looking for reported Ki with cathepsin D (Homo sapiens, UniProt P07339) for Cc1csc(CN(C)C(=O)c2cccc(C(=O)NC(Cc3ccccc3)C(O)CNC(C)c3ccccc3)c2)n1 (stereo not shown) . Could you help?
> 501 nM

---

# study-system: memapsin 1 (Homo sapiens, UniProt Q9Y5Z0)
# Sequence (Q9Y5Z0 63-518): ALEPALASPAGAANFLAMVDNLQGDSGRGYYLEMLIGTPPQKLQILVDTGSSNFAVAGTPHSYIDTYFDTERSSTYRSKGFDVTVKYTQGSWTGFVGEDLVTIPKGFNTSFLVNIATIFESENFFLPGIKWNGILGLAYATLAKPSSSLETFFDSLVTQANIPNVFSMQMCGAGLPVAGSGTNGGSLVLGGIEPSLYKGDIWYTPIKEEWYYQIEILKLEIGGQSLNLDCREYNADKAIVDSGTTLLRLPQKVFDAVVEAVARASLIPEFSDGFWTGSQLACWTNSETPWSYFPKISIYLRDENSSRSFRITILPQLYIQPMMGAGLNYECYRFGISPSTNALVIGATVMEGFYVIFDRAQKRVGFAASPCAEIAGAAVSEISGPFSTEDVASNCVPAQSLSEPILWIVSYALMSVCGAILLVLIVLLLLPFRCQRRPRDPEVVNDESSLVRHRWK
pKi: −log10 of the molar value.
readout-kind: pKi

Sample COc1cccc(CNCC(O)C(Cc2ccccc2)NC(=O)c2cc(C(=O)NC(C)c3ccc(F)cc3)cc(N(C)S(C)(=O)=O)c2)c1 (centres unmarked) — what was its pKi?
> 6.52

Sample COc1cccc(CNCC(O)C(Cc2ccccc2)NC(=O)c2cc(C(=O)NC(C)c3ccccc3)cc([N+](=O)[O-])c2)c1 (centres unmarked) — what was its pKi?
> 6.52

Sample CC(NC(=O)c1cc(C(=O)NC(Cc2ccccc2)C(O)CNCc2cccc(F)c2)cc(N(C)S(C)(=O)=O)c1)c1ccccc1 (centres unmarked) — what was its pKi?
< 6.30

Sample COc1cccc(CNCC(O)C(Cc2ccccc2)NC(=O)c2cc(C(=O)NC(C)c3cccc(OC)c3)cc(N(C)S(C)(=O)=O)c2)c1 (centres unmarked) — what was its pKi?
< 6.30

Sample COc1cccc(CNCC(O)C(Cc2ccccc2)NC(=O)c2cc(C(=O)NC(C)c3ccccc3)cc(N(C)S(C)(=O)=O)c2)c1 (centres unmarked) — what was its pKi?
> 6.52

---

# study-system: memapsin 2 (Homo sapiens)
# Sequence (P56817 46-501): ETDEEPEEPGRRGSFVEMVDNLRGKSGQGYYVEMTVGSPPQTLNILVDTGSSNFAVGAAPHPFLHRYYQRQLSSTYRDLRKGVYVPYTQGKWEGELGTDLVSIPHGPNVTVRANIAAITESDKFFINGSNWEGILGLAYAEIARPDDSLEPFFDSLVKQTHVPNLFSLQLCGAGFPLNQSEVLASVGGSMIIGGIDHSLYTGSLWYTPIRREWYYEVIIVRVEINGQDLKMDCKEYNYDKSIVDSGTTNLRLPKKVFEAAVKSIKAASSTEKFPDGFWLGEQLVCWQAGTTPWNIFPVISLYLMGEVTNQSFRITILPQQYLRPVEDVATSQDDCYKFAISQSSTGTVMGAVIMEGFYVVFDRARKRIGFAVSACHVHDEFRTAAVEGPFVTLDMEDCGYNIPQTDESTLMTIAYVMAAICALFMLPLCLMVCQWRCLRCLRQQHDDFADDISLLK
# method-summary: Inhibition of memapsin 2 catalytic activity (Ki)
# Format: biochemical
# reported-conditions: memapsin 2, pH 4, 37° C.; read-out: M2K
# key: entry, value: Ki

Sample CCOc1cncc(CNCC(O)C(Cc2ccccc2)NC(=O)c2cccc(C(=O)N(C)Cc3nc(C)cs3)c2)c1 (centres unmarked) — what was its Ki?
< 300 nM

Sample Cc1cc(CNCC(O)C(Cc2ccccc2)NC(=O)c2cc(C(=O)NC(C)c3ccccc3)cc(N(C)S(C)(=O)=O)c2)on1 (centres unmarked) — what was its Ki?
< 300 nM

Sample Cc1cc(CNCC(O)C(Cc2ccccc2)NC(=O)c2cc(C(=O)NC(C)c3ccccc3)cc(N(C)S(C)(=O)=O)c2)[nH]n1 (centres unmarked) — what was its Ki?
> 501 nM

Sample Cc1csc(CN(C)C(=O)c2cccc(C(=O)NC(Cc3ccccc3)C(O)CNCCN3CCCC3)c2)n1 (centres unmarked) — what was its Ki?
> 501 nM

Sample COc1cccc(CNCC(O)C(Cc2ccccc2)NC(=O)c2cc(C(=O)N(C)Cc3nc(C)cs3)cc([N+](=O)[O-])c2)c1 (centres unmarked) — what was its Ki?
< 300 nM
